# Test system: 519858-162-T-J1-PDC complex spheroid growth, % test/control;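 note: seven day drug exposure begun three days after spheroid seeding; 100% = DMSO vehicle wells and lower values mean less viable spheroid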
# assay_details: Anticancer human tumor 519858-162-T-J1-PDC patient-derived colon adenocarcinoma cell line growth inhibition [Asc]
# condition_summary: second compound 0.00316 µM; first compound 0.01 µM; active compounds read low
# reported viability, T/C; entries follow
experimental_readout: viability, T/C

[
  {
    "compound": "CCN1CCN(Cc2ccc(Nc3ncc(F)c(-c4cc(F)c5nc(C)n(C(C)C)c5c4)n3)nc2)CC1 + CNC(C)C(=O)NC1CN(S(=O)(=O)c2cccc(S(=O)(=O)N3CCC4CCC(C(=O)NC(c5ccccc5)c5ccccc5)N4C(=O)C(NC(=O)C(C)NC)C3)c2)CCC2CCC(C(=O)NC(c3ccccc3)c3ccccc3)N2C1=O",
    "result": "99.6%"
  },
  {
    "compound": "COc1c(OCCCN2CCOCC2)ccc2c3n(c(=NC(=O)c4cnc(N)nc4)nc12)CCN3 + CNC(C)C(=O)NC1CN(S(=O)(=O)c2cccc(S(=O)(=O)N3CCC4CCC(C(=O)NC(c5ccccc5)c5ccccc5)N4C(=O)C(NC(=O)C(C)NC)C3)c2)CCC2CCC(C(=O)NC(c3ccccc3)c3ccccc3)N2C1=O",
    "result": "61%"
  },
  {
    "compound": "Cn1ncnc1[C@H]1c2n[nH]c(=O)c3cc(F)cc(c23)N[C@@H]1c1ccc(F)cc1 + CNC(C)C(=O)NC1CN(S(=O)(=O)c2cccc(S(=O)(=O)N3CCC4CCC(C(=O)NC(c5ccccc5)c5ccccc5)N4C(=O)C(NC(=O)C(C)NC)C3)c2)CCC2CCC(C(=O)NC(c3ccccc3)c3ccccc3)N2C1=O",
    "result": "62.1%"
  }
]

Value source: PubChem BioAssay AID1963421
